tested on: OVCAR-3; experiment: NCI tumour cell line growth inhibition, 48 h
Calls of active or inactive are those of the source. Cut-off read from the data, not from the text of the source: active = GI50 up to about 1.1 µM and inactive = higher.
Reported Metric: GI50

Below, 5 molecules whose answers are already recorded.
O=C(CCNC12CC3CC(CC(C3)C1)C2)c1ccccc1
> 10 µM (inactive)
OCC1OC(n2cnc3cccnc32)CC1O (configuration not stated)
> 100 µM (inactive)
CCOC(=O)C1=C(OS(=O)(=O)C(F)(F)F)CCCC1
> 100 µM (inactive)
CC(=O)OCCCOCn1c(Cc2ccccc2)c(C)c(=O)[nH]c1=O
> 100 µM (inactive)
O=[N+]([O-])c1ccc(/N=N/c2c(O)ccc3ccccc23)cc1
50.5 µM (inactive)

input: What measured GI50 goes with CSc1ccccc1NC1=NCCO1 ?
output: > 100 µM (inactive)

input: What measured GI50 goes with CCOC(=O)c1nc2cc(C(F)(F)F)ccc2nc1Nc1ccc(OC)c(OC)c1 ?
output: > 100 µM (inactive)

* * *

Item-by-item account of GI50
tested on: SW-620; experiment: NCI tumour cell line growth inhibition, 48 h
Active and inactive are the calls of the source. No stated cut-off is given here; in the data, active = GI50 up to about 1.1 µM and inactive = higher.

Cc1cn(C(C)OCCN2C(=O)c3ccccc3C2=O)c(=O)[nH]c1=O (centres undefined)
> 100 µM (inactive)

Now, please, on to the next compound.
input: What measured GI50 goes with c1ccc2c(c1)SCCCS2 ?
output: > 100 µM (inactive)

* * *

system: SK-MEL-2; experiment: NCI tumour cell line growth inhibition, 48 h
The source made the active and inactive calls. Cut-off read from the data, not from the text of the source: active = GI50 up to about 1.1 µM and inactive = higher.
Reported Metric: GI50

Below, 3 compounds whose answers are already recorded.
COC(=O)[C@H](CCSC)NC(=O)c1ccc(CNC(=O)/C(C)=C/c2ccccc2)cc1
20.7 µM (inactive)
N/N=C1\c2ccccc2C2/C(=N\N)c3ccccc3C12 (stereo not drawn)
> 100 µM (inactive)
CCOP(=O)(COCCn1nc(Br)c(=O)[nH]c1=O)OCC
> 100 µM (inactive)

input: // fetch SK-MEL-2 GI50 for O=C(Nc1ccc(Cl)cc1)C(=O)C(C(=O)c1ccccc1-c1ccccc1)C1OC(=O)c2ccccc21 (stereo not drawn)
output: 20.8 µM (inactive)

* * *

system: HCT-15
Reported Metric: GI50

Nc1nc2c3c(ncn3CC(O)CO2)n1 (stereo not given)
> 100 µM
CNC(=O)N1CN(c2ccccc2)C2(CCN(CCCC3(c4ccc(F)cc4)OCCO3)CC2)C1=O
> 100 µM
O=C(OCc1ccccc1C1CSCSC1)c1cc(C(=O)OCc2ccccc2C2CSCSC2)c(C(=O)OCc2ccccc2C2CSCSC2)cc1C(=O)OCc1ccccc1C1CSCSC1
> 100 µM
OCC(Cn1cncn1)(c1ccc(F)cc1F)n1cncn1 (stereo not given)
> 100 µM
C/C(=C\COP(=O)(O)OP(=O)(O)O)CC/C=C(\C)CNc1ccccc1
> 50 µM

input: // fetch HCT-15 GI50 for CCOC(=O)c1nc2ccccc2nc1Nc1ccc(C(=O)OC)s1
output: > 100 µM

input: // fetch HCT-15 GI50 for Nc1nc(-c2ccco2)cc(-c2ccco2)n1
output: > 100 µM

input: // fetch HCT-15 GI50 for COc1ccc(NCn2nc(CCCCCCCCc3nn(CNc4ccc(OC)cc4)c(=S)o3)oc2=S)cc1
output: > 100 µM

* * *

test system: SF-295; assay: NCI tumour cell line growth inhibition, 48 h
Calls of active or inactive are those of the source. Cut-off read from the data, not from the text of the source: active = GI50 up to about 1.1 µM and inactive = higher.
Reported Metric: GI50

N#C[BH2-][n+]1ccc(C(=O)NNCC(F)(F)F)cc1
> 100 µM (inactive)
Nc1ncnc2c1ncn2[C@]1(CO)C=C(CO)C(O)C1O (some centres undefined)
> 100 µM (inactive)
CC(=O)Nc1cccc(N2C(=O)/C(=C\c3cccc(Oc4ccccc4)c3)SC2c2ccccc2)c1 (centres undefined)
> 100 µM (inactive)
CN(C)c1ccc(/C=C(\C#N)C(=O)c2ccccc2)cc1Br
> 100 µM (inactive)
OC(c1cccnc1Cl)c1nc2ccccc2c2ccnc(Cl)c12 (centres undefined)
2.52 µM (inactive)
CCCCCCCCCCCCCCCC(=O)OCC1OC(n2cc(F)c(=O)[nH]c2=O)C(N)C(O)C1O (centres undefined)
17.1 µM (inactive)
COc1ccc2c(c1)-c1c(c3cc(OC)ccc3n1CCN1CCOCC1)CC2
18.9 µM (inactive)
COC(=O)/C=C1/OC(c2ccccc2)=C(C)C1=O
13.3 µM (inactive)
CC(C)Cn1cnc2c(Cl)nc3ccccc3c21
72.6 µM (inactive)
Clc1ccc(/C(=C/c2ccccc2)Cn2ccnc2)cc1
12.7 µM (inactive)

input: What measured GI50 goes with COc1cc2nc(NCCCCCNC(=O)c3ccco3)nc(N)c2cc1OC ?
output: 37.2 µM (inactive)

input: What measured GI50 goes with COC(=O)c1c/c(=N\NC(=O)CC(=O)Nc2ccccc2Cl)c2ccccc2o1 ?
output: > 100 µM (inactive)

input: What measured GI50 goes with C=C(C)[C@@H]1CC[C@]2(C(=O)OC3OC(COC4OC(CO)C(OC5OC(C)C(O)C(O)C5O)C(O)C4O)C(O)C(O)C3O)CC[C@]3(C)[C@H](CC[C@@H]4[C@@]5(C)CC[C@H](O)[C@@](C)(CO)[C@@H]5CC[C@]43C)[C@@H]12 (some centres undefined) ?
output: 1.27 µM (inactive)

input: What measured GI50 goes with O=C(NC(=S)Nc1ccc([N+](=O)[O-])cc1)c1ccc2c(c1)Sc1ccccc1O2 ?
output: 89.1 µM (inactive)

* * *

system: MDA-N; assay: NCI tumour cell line growth inhibition, 48 h
Activity calls are given as the source filed them. Rule as the data show it: active = GI50 up to about 1.1 µM and inactive = higher. Square brackets hold non-standard residues; d marks the D form. Peptide text beside a SMILES is read from it. ξ: configuration not given here. ξ2Thi = NC(Cc1cccs1)C(=O)O; ξR = N=C(N)NCCCC(N)C(=O)O; ξI = CCC(C)C(N)C(=O)O; ξL = CC(C)CC(N)C(=O)O; ξK = NCCCCC(N)C(=O)O; ξT = CC(O)C(N)C(=O)O; ξA = CC(N)C(=O)O
Reported Metric: GI50

input: What measured GI50 goes with Cc1ccc(S(=O)(=O)N/N=C2/CCCOC2)cc1 ?
output: > 100 µM (inactive)

input: What measured GI50 goes with Nc1ccc2c(=S)c3ccccc3[nH]c2c1 ?
output: 46.8 µM (inactive)

input: What measured GI50 goes with c1ccc(-c2c[nH]c(SC(c3ccccc3)c3ccccc3)n2)cc1 ?
output: 20.7 µM (inactive)

input: What measured GI50 goes with CCOC(=O)C1=CNC(C(=O)OCC)C1c1cccn1-c1ccc(Cl)cc1[N+](=O)[O-] (stereo not given) ?
output: 22 µM (inactive)

input: What measured GI50 goes with COc1ccc2c(-c3cc4ccccc4o3)cc(=O)oc2c1 ?
output: > 76.6 µM (inactive)

input: What measured GI50 goes with COc1ccc(N[S+]([O-])c2c(C)cc(C)cc2C)cc1 (stereo not given) ?
output: 93.1 µM (inactive)

input: What measured GI50 goes with CC(C)(C)c1ccc(NS(=O)(=O)c2ccc(N)cc2)cc1 ?
output: 23.6 µM (inactive)

input: What measured GI50 goes with N#Cc1nnc2c3c(-c4ccc(Cl)cc4)c(C#N)c(O)nc3nn2c1N ?
output: 3.61 µM (inactive)

input: What measured GI50 goes with COc1ccc(C(=O)/C=C/c2ccc(O)c(O)c2F)c(OC)c1 ?
output: 3.23 µM (inactive)

input: What measured GI50 goes with O=[As](O)(O)c1ccc2nc3cc([As](=O)(O)O)ccc3nc2c1 ?
output: > 100 µM (inactive)

input: What measured GI50 goes with C=C(C)C(CC=C(C)C)Cc1c(O)cc(OC)c2c1OC(c1ccc(O)cc1O)C(O)C2=O (stereo not given) ?
output: 14.9 µM (inactive)

input: What measured GI50 goes with COc1ccc(N2C(=O)C(=O)C3(CCCCC3)C2=O)c(OC)c1OC ?
output: > 100 µM (inactive)

input: What measured GI50 goes with COC(=O)[C@H](Cc1ccccc1)NC(=O)c1ccc(CNC(=O)/C=C/c2csc(-c3ccccc3)n2)cc1 ?
output: 4.45 µM (inactive)

input: What measured GI50 goes with CCC(C)C(NC(=O)C(Cc1cccs1)NC(=O)C(CC(C)C)NC(=O)C(CC(C)C)NC(=O)C(CCCCN)NC(=O)C(CCCN=C(N)N)NC(=O)[C@H](Cc1ccc(O)cc1)NC(=O)C(NC(=O)C(C)NC(=O)C(N)CC(C)C)C(C)O)C(=O)NC(CC(C)C)C(N)=O (stereo not given in full) (H-[ξL][ξA][ξT]Y[ξR][ξK][ξL][ξL][ξ2Thi][ξI][ξL]-NH2) ?
output: > 50 µM (inactive)

input: What measured GI50 goes with C(/Cc1ccc2c(c1)OCO2)=N\N=C1NCCCN1 ?
output: > 100 µM (inactive)

input: What measured GI50 goes with O=C1/C(=C/c2ccc(Cl)cc2)N=C(c2ccccc2)N1c1nc2c(Cl)cc(Cl)cc2s1 ?
output: 17.5 µM (inactive)

input: What measured GI50 goes with COC(=O)C(Cc1ccc2c(c1)CCCC2)Cc1cc2c(cc1C(O)OC)CCC2 (stereo not given) ?
output: 56.8 µM (inactive)

input: What measured GI50 goes with Cc1ccc(S(=O)(=O)N/C(=N\O)Nc2ccc(Cl)c(Cl)c2)cc1 ?
output: 3.57 µM (inactive)
